- Tested on: CCRF-CEM
- testProtocol: Inhibition of proliferation / cytotoxicity, CCRF-CEM
- Type: cell-based
- studyConditions: CCRF-CEM human leukemia cell line; read-out: Tumor Cell Line (IC50, nM) CCRF-CEM
Friendly reminder: IC50 below 2 nM is Yes, at or above is No.

[[record]]
compound = "CCC(C=CC1OC(=O)C=CC1C)=CC(C)CC=CC(C)=CC(C)C(=O)C(C)C(O)C(C)CC(C)=CC(=O)NCCOc1ccccc1 (stereo not drawn) [Compound 9]"
targetsystem = "CCRF-CEM"
grouplabel = "Yes"

[[record]]
compound = "CCC(C=CC1OC(=O)C=CC1C)=CC(C)CC=CC(C)=CC(C)C(=O)C(C)C(O)C(C)CC(C)=CC(=O)NCCCCNC(=O)OC(C)(C)C (stereo not drawn) [Compound 14]"
targetsystem = "CCRF-CEM"
grouplabel = "Yes"

[[record]]
compound = "CCC(C=CC1OC(=O)C=CC1C)=CC(C)CC=CC(C)=CC(C)C(=O)C(C)C(O)C(C)CC(C)=CC(=O)NCCNC(=O)OC(C)(C)C (stereo not drawn) [Compound 6]"
targetsystem = "CCRF-CEM"
grouplabel = "Yes"

[[record]]
compound = "CCC(C=CC1OC(=O)C=CC1C)=CC(C)CC=CC(C)=CC(C)C(=O)C(C)C(O)C(C)CC(C)=CC(=O)NCCO (stereo not drawn) [Compound 2]"
targetsystem = "CCRF-CEM"
grouplabel = "No"

[[record]]
compound = "CCC(C=CC1OC(=O)C=CC1C)=CC(C)CC=CC(C)=CC(C)C(=O)C(C)C(O)C(C)CC(C)=CC(=O)NCCCN1CCOCC1 (stereo not drawn) [Compound 8]"
targetsystem = "CCRF-CEM"
grouplabel = "Yes"

[[record]]
compound = "CCC(C=CC1OC(=O)C=CC1C)=CC(C)CC=CC(C)=CC(C)C(=O)C(C)C(O)C(C)CC(C)=CC(=O)NCCc1cccnc1 (stereo not drawn) [Compound 4]"
targetsystem = "CCRF-CEM"
grouplabel = "Yes"


* * *

- Test system: CCRF-CEM
- testProtocol: Inhibition of proliferation / cytotoxicity, CCRF-CEM
- Assay type: cell-based
- studyConditions: CCRF-CEM human leukemia cell line; read-out: Tumor Cell Line (IC50, nM) CCRF-CEM
experimentalReadout: IC50 (nM)

[[record]]
compound = "CCC(C=CC1OC(=O)C=CC1C)=CC(C)CC=CC(C)=CC(C)C(=O)C(C)C(O)C(C)CC(C)=CC(=O)NCCNC (stereo not drawn) [Compound 16]"
quantitativeresult = 1.8

[[record]]
compound = "CCC(C=CC1OC(=O)C=CC1C)=CC(C)CC=CC(C)=CC(C)C(=O)C(C)C(O)C(C)CC(C)=CC(=O)NCCN (stereo not drawn) [Compound 15]"
quantitativeresult = 17

[[record]]
compound = "CCC(C=CC1OC(=O)C=CC1C)=CC(C)CC=CC(C)=CC(C)C(=O)C(C)C(O)C(C)CC(C)=CC(=O)NCCN(C)C (stereo not drawn) [Compound 7]"
quantitativeresult = 1.4


* * *

- Test system: NCI/ADR
- testProtocol: Inhibition of proliferation / cytotoxicity, NCI/ADR
- Assay type: cell-based
- studyConditions: NCI/ADR multi-drug resistant breast cancer cell line; read-out: Tumor Cell Line (IC50, nM) NCI/ADR
experimentalReadout: log10(IC50) (log10 of the value in nM)

[[record]]
compound = "CCC(C=CC1OC(=O)C=CC1C)=CC(C)CC=CC(C)=CC(C)C(=O)C(C)C(O)C(C)CC(C)=CC(=O)NCCO (stereo not shown)"
targetsystem = "NCI/ADR"
quantitativeresult = 1.43

[[record]]
compound = "CCC(C=CC1OC(=O)C=CC1C)=CC(C)CC=CC(C)=CC(C)C(=O)C(C)C(O)C(C)CC(C)=CC(=O)NCCN(C)C (stereo not shown)"
targetsystem = "NCI/ADR"
quantitativeresult = 2.04

[[record]]
compound = "CCC(C=CC1OC(=O)C=CC1C)=CC(C)CC=CC(C)=CC(C)C(=O)C(C)C(O)C(C)CC(C)=CC(=O)NC (stereo not shown)"
targetsystem = "NCI/ADR"
quantitativeresult = 0.32

[[record]]
compound = "CCC(C=CC1OC(=O)C=CC1C)=CC(C)CC=CC(C)=CC(C)C(=O)C(C)C(O)C(C)CC(C)=CC(=O)NCCNC(C)C (stereo not shown)"
targetsystem = "NCI/ADR"
quantitativeresult = 2.87

[[record]]
compound = "CCC(C=CC1OC(=O)C=CC1C)=CC(C)CC=CC(C)=CC(C)C(=O)C(C)C(O)C(C)CC(C)=CC(=O)NCCCCCNC(=O)COc1ccc(C2=NC(=Cc3ccc(-c4cccs4)n3B(F)F)C=C2)cc1 (stereo not shown)"
targetsystem = "NCI/ADR"
quantitativeresult = 3.00

[[record]]
compound = "CCC(C=CC1OC(=O)C=CC1C)=CC(C)CC=CC(C)=CC(C)C(=O)C(C)C(O)C(C)CC(C)=CC(=O)NCCOc1ccccc1 (stereo not shown)"
targetsystem = "NCI/ADR"
quantitativeresult = 1.57

[[record]]
compound = "CCC(C=CC1OC(=O)C=CC1C)=CC(C)CC=CC(C)=CC(C)C(=O)C(C)C(O)C(C)CC(C)=CC(=O)NCC(=O)OC (stereo not shown)"
targetsystem = "NCI/ADR"
quantitativeresult = 0.66

[[record]]
compound = "CCC(C=CC1OC(=O)C=CC1C)=CC(C)CC=CC(C)=CC(C)C(=O)C(C)C(O)C(C)CC(C)=CC(=O)NCCCN1CCOCC1 (stereo not shown)"
targetsystem = "NCI/ADR"
quantitativeresult = 1.59

[[record]]
compound = "CCC(C=CC1OC(=O)C=CC1C)=CC(C)CC=CC(C)=CC(C)C(=O)C(C)C(O)C(C)CC(C)=CC(=O)NCc1c(C)c(=O)n2c(=O)c(C)c(C)n12 (stereo not shown)"
targetsystem = "NCI/ADR"
quantitativeresult = 2.58

[[record]]
compound = "CCC(C=CC1OC(=O)C=CC1C)=CC(C)CC=CC(C)=CC(C)C(=O)C(C)C(O)C(C)CC(C)=CC(=O)Nc1ccc2cn[nH]c2c1 (stereo not shown)"
targetsystem = "NCI/ADR"
quantitativeresult = 1.53

[[record]]
compound = "CCC(C=CC1OC(=O)C=CC1C)=CC(C)CC=CC(C)=CC(C)C(=O)C(C)C(O)C(C)CC(C)=CC(=O)NCc1ccc(-c2ccccc2)cc1 (stereo not shown)"
targetsystem = "NCI/ADR"
quantitativeresult = 2.18

[[record]]
compound = "CCC(C=CC1OC(=O)C=CC1C)=CC(C)CC=CC(C)=CC(C)C(=O)C(C)C(O)C(C)CC(C)=CC(=O)NCCC1OCCO1 (stereo not shown)"
targetsystem = "NCI/ADR"
quantitativeresult = 0.76

[[record]]
compound = "CCC(C=CC1OC(=O)C=CC1C)=CC(C)CC=CC(C)=CC(C)C(=O)C(C)C(O)C(C)CC(C)=CC(=O)NCC(=O)O (stereo not shown)"
targetsystem = "NCI/ADR"
quantitativeresult = 2.41

[[record]]
compound = "CCC(C=CC1OC(=O)C=CC1C)=CC(C)CC=CC(C)=CC(C)C(=O)C(C)C(O)C(C)CC(C)=CC(=O)NCCNC(=O)CCC1=NC(=Cc2c(C)cc(C)n2B(F)F)C=C1 (stereo not shown)"
targetsystem = "NCI/ADR"
quantitativeresult = 2.48

[[record]]
compound = "CCC(C=CC1OC(=O)C=CC1C)=CC(C)CC=CC(C)=CC(C)C(=O)C(C)C(O)C(C)CC(C)=CC(=O)NCCCCNC(=O)OC(C)(C)C (stereo not shown)"
targetsystem = "NCI/ADR"
quantitativeresult = 1.52

[[record]]
compound = "CCC(C=CC1OC(=O)C=CC1C)=CC(C)CC=CC(C)=CC(C)C(=O)C(C)C(O)C(C)CC(C)=CC(=O)NCCNC(=O)OC(C)(C)C (stereo not shown)"
targetsystem = "NCI/ADR"
quantitativeresult = 1.53

[[record]]
compound = "CCC(C=CC1OC(=O)C=CC1C)=CC(C)CC=CC(C)=CC(C)C(=O)C(C)C(O)C(C)CC(C)=CC(=O)NCCNC (stereo not shown)"
targetsystem = "NCI/ADR"
quantitativeresult = 2.66

[[record]]
compound = "CCC(C=CC1OC(=O)C=CC1C)=CC(C)CC=CC(C)=CC(C)C(=O)C(C)C(O)C(C)CC(C)=CC(=O)NCCc1cccnc1 (stereo not shown)"
targetsystem = "NCI/ADR"
quantitativeresult = 1.28

[[record]]
compound = "CCC(C=CC1OC(=O)C=CC1C)=CC(C)CC=CC(C)=CC(C)C(=O)C(C)C(O)C(C)CC(C)=CC(=O)NCCN (stereo not shown)"
targetsystem = "NCI/ADR"
quantitativeresult = 2.80

